B1: glmS ribozyme (parent)
chain: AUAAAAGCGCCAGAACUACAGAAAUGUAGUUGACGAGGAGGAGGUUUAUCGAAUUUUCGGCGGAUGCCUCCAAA

variants of: B1; assay: self-cleavage kobs at 640 uM GlcN6P; higher = faster cleavage; RNA array; conditions: with glucosamine-6-phosphate
This sample holds only a part of the variants without activity.
observed property: self-cleavage kobs at 640 uM GlcN6P

{"mutation annotation": "G7A A48G A64U C70U", "observed property": "self-cleavage kobs at 640 uM GlcN6P", "recorded result": "< 1e-05 s⁻¹"}
{"mutation annotation": "C16G G35C A39G G60U C61U C68U C71A", "observed property": "self-cleavage kobs at 640 uM GlcN6P", "recorded result": "< 1e-05 s⁻¹"}
{"mutation annotation": "C10A A15U", "observed property": "self-cleavage kobs at 640 uM GlcN6P", "recorded result": "< 1e-05 s⁻¹"}
{"mutation annotation": "G51C U54G", "observed property": "self-cleavage kobs at 640 uM GlcN6P", "recorded result": "< 1e-05 s⁻¹"}
{"mutation annotation": "C11U A33C G41A", "observed property": "self-cleavage kobs at 640 uM GlcN6P", "recorded result": "< 1e-05 s⁻¹"}
{"mutation annotation": "G41A U47A A52C", "observed property": "self-cleavage kobs at 640 uM GlcN6P", "recorded result": "< 1e-05 s⁻¹"}
{"mutation annotation": "A6C G40C G60U", "observed property": "self-cleavage kobs at 640 uM GlcN6P", "recorded result": "< 1e-05 s⁻¹"}
{"mutation annotation": "A6C G35C U54A", "observed property": "self-cleavage kobs at 640 uM GlcN6P", "recorded result": "< 1e-05 s⁻¹"}
{"mutation annotation": "C11U A36C G43U C71A", "observed property": "self-cleavage kobs at 640 uM GlcN6P", "recorded result": "< 1e-05 s⁻¹"}
{"mutation annotation": "G32C G37U G38C", "observed property": "self-cleavage kobs at 640 uM GlcN6P", "recorded result": "< 1e-05 s⁻¹"}
{"mutation annotation": "A14G A15C G29A U47C C67A C71A", "observed property": "self-cleavage kobs at 640 uM GlcN6P", "recorded result": "< 1e-05 s⁻¹"}
{"mutation annotation": "G37U G38C C71U", "observed property": "self-cleavage kobs at 640 uM GlcN6P", "recorded result": "< 1e-05 s⁻¹"}
